target: PI3Kβ (Homo sapiens (Human), UniProt P42338); assay: PI3Kβ enzyme activity inhibition IC50 evaluation assay; format: biochemical; details: ratio PI3Kβ vs PI3Kδ
Sequence (P42338 whole entry): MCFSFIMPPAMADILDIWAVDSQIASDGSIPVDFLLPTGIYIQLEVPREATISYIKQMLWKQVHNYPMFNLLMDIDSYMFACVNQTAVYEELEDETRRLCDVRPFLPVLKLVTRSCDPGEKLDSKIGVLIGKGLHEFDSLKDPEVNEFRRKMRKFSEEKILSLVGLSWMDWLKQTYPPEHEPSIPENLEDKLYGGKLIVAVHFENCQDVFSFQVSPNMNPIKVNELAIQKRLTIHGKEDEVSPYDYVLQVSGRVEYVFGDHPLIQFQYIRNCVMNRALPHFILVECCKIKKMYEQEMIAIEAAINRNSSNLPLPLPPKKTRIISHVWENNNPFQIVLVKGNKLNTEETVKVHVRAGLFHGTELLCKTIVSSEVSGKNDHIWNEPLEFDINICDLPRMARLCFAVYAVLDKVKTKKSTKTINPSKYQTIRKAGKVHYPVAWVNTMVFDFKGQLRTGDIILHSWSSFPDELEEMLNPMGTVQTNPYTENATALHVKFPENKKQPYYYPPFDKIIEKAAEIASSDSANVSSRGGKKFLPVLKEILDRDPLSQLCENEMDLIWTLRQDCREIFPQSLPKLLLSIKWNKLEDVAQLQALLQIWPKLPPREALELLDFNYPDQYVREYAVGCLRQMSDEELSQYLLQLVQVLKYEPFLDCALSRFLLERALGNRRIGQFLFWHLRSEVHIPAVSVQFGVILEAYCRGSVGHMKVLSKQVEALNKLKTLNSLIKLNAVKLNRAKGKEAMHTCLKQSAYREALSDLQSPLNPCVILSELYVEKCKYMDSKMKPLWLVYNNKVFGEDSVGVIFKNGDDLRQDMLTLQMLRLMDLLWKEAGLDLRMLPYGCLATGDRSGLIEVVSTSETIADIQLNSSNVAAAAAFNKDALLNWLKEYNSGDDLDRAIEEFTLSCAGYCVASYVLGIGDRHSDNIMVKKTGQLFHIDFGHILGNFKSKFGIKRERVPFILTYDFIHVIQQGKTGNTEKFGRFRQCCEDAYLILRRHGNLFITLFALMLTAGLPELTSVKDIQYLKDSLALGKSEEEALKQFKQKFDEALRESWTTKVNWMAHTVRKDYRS
Sequence (P27986 whole entry partner): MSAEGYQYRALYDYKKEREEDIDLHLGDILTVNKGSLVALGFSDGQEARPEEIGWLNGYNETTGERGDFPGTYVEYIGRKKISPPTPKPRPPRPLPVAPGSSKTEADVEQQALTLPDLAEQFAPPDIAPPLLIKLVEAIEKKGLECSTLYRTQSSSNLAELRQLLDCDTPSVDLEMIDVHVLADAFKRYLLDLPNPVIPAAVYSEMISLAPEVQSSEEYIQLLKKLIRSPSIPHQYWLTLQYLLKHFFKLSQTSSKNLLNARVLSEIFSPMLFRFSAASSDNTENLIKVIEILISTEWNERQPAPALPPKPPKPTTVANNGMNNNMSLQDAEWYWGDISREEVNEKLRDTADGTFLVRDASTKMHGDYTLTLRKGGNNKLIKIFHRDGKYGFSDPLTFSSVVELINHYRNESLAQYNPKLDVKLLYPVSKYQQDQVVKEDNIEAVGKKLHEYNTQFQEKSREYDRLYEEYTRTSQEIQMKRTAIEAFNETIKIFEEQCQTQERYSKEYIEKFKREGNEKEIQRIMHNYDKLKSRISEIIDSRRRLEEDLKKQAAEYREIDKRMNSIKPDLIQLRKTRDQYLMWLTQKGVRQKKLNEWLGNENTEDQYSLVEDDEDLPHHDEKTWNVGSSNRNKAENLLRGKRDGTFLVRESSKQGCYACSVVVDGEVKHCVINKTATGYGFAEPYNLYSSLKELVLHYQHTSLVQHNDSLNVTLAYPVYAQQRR
Would you mind labelling by β/δ selectivity? At or over 100 is y, under is n.

// inclusive: β/δ selectivity at least 100? input: COc1ncc(-c2nc(N3CCOCC3)nc3c(CN4CCC5(CC4)OCCO5)c(C)sc23)cc1NS(C)(=O)=O
n

// inclusive: β/δ selectivity at least 100? input: COc1ncc(-c2nc(N3CCOCC3)nc3c(CN4CCC(N(C)C(C)C)CC4)c(C)sc23)cc1NS(C)(=O)=O
y

// inclusive: β/δ selectivity at least 100? input: COc1ncc(-c2nc(N3CCOCC3)nc3c(CN4CCC(N5CCC5)CC4)c(C)sc23)cc1NS(C)(=O)=O
y

// inclusive: β/δ selectivity at least 100? input: COc1ncc(-c2nc(N3CCOCC3)nc3c(CN4CCN(CC(F)(F)F)CC4)c(C)sc23)cc1NS(C)(=O)=O
n

// inclusive: β/δ selectivity at least 100? input: COc1ncc(-c2nc(N3CCOCC3)nc3c(CN4CCC(N5CCCCC5)CC4)c(C)sc23)cc1NS(C)(=O)=O
y

// inclusive: β/δ selectivity at least 100? input: COc1ncc(-c2nc(N3CCOCC3)nc3c(CN4CCN(C)CC4)c(C)sc23)cc1NS(C)(=O)=O
n

// inclusive: β/δ selectivity at least 100? input: COc1ncc(-c2nc(N3CCOCC3)nc3c(CN4CCC(N5CCCC5)CC4)c(C)sc23)cc1NS(C)(=O)=O
y

----------
Task for the reader: assign each of the following molecules its reported pIC50.
The read-out pIC50 is expressed as -log10 of concentration in moles per litre.

Checklist item: pIC50 tested on PI3Kδ (Homo sapiens (Human)), entry COc1ncc(-c2nc(N3CCOCC3)nc3c(CN4CCC(N(C)C(C)C)CC4)csc23)cc1NS(C)(=O)=O , value?
8.27

Checklist item: pIC50 tested on PI3Kδ (Homo sapiens (Human)), entry CN1CCN(Cc2csc3c(-c4cncc(NS(C)(=O)=O)c4)nc(N4CCOCC4)nc23)CC1 , value?
7.51

Checklist item: pIC50 tested on PI3Kδ (Homo sapiens (Human)), entry COc1ncc(-c2nc(N3CCOCC3)nc3c(CN4CCC5(CC4)OCCO5)c(C)sc23)cc1NS(C)(=O)=O , value?
8.37

Checklist item: pIC50 tested on PI3Kδ (Homo sapiens (Human)), entry COc1ncc(-c2nc(N3CCOCC3)nc3c(CN4CCN(C)CC4)csc23)cc1NS(C)(=O)=O , value?
7.96

----------
molecular target: PI3Kα (Homo sapiens (Human), UniProt P42336); experiment: PI3Kα enzyme activity inhibition IC50 evaluation assay; assay type: biochemical; settings: ratio PI3Kα vs PI3Kδ
Sequence (P42336 whole entry): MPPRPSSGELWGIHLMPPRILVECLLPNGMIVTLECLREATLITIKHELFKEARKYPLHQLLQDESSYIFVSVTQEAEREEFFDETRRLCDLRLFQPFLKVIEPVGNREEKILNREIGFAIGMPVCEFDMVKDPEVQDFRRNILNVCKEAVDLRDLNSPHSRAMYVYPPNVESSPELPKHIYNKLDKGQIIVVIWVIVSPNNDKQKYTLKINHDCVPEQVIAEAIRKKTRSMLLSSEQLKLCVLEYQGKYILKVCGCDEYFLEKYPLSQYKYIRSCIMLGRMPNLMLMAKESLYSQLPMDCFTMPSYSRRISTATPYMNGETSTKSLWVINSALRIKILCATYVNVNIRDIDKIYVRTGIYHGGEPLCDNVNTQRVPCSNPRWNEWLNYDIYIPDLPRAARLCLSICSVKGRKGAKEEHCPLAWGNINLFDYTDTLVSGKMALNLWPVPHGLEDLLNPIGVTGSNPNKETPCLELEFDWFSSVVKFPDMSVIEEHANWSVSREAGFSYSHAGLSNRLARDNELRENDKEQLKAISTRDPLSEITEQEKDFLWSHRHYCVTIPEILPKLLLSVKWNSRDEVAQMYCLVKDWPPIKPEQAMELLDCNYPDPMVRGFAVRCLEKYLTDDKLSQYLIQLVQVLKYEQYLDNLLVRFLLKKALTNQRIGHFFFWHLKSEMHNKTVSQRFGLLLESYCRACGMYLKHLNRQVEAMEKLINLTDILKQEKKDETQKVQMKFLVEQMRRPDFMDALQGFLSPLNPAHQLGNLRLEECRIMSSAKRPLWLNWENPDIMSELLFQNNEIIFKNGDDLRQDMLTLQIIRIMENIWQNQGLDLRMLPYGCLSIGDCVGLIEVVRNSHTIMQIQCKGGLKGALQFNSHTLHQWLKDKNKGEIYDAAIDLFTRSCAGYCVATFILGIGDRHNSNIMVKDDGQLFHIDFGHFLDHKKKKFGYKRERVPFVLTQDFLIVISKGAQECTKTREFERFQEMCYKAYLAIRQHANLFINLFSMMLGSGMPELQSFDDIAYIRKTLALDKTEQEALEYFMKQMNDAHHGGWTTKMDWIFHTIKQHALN
Sequence (P27986 whole entry partner): as the sequence (P27986 whole entry partner) above
Task for the reader: assign each of the following compounds its reported α/δ selectivity.
Format: numeric value only, no unit, no commentary.

Checklist item: α/δ selectivity tested on PI3Kα (Homo sapiens (Human), UniProt P42336), entry COc1ncc(-c2nc(N3CCOCC3)nc3c(CN4CCC5(CC4)COC5)c(C)sc23)cc1NS(C)(=O)=O [Compound 115] , value?
67

Checklist item: α/δ selectivity tested on PI3Kα (Homo sapiens (Human), UniProt P42336), entry COc1ncc(-c2nc(N3CCOCC3)nc3c(CN4CCC(N(C)C(C)C)CC4)c(C)sc23)cc1NS(C)(=O)=O [Compound 95] , value?
157

Checklist item: α/δ selectivity tested on PI3Kα (Homo sapiens (Human), UniProt P42336), entry COc1ncc(-c2nc(N3CCOCC3)nc3c(CN4CCN(S(C)(=O)=O)CC4)c(C)sc23)cc1NS(C)(=O)=O [Compound 61] , value?
12

Checklist item: α/δ selectivity tested on PI3Kα (Homo sapiens (Human), UniProt P42336), entry COc1ncc(-c2nc(N3CCOCC3)nc3c(CN4CCC(C(C)(C)O)CC4)csc23)cc1NS(=O)(=O)c1ccccc1 [Compound 41] , value?
323

Checklist item: α/δ selectivity tested on PI3Kα (Homo sapiens (Human), UniProt P42336), entry COc1ncc(-c2nc(N3CCOCC3)nc3c(CN4CCS(=O)(=O)CC4)c(C)sc23)cc1NS(C)(=O)=O [Compound 113] , value?
27

Checklist item: α/δ selectivity tested on PI3Kα (Homo sapiens (Human), UniProt P42336), entry COc1ncc(-c2nc(N3CCOCC3)nc3c(CN4CCOCC4)csc23)cc1NS(C)(=O)=O [Compound 36] , value?
23

Checklist item: α/δ selectivity tested on PI3Kα (Homo sapiens (Human), UniProt P42336), entry COc1ncc(-c2nc(N3CCOCC3)nc3c(CN4CCCCC4)c(C)sc23)cc1NS(C)(=O)=O [Compound 86] , value?
136
